Recorded IC50, reporter cell assay of TGFβ1 activation, one value per entry.
# Test Target: hLTBP1-proTGFβ1 complex made by transfected cells (cell-based potency assay) (human, UniProt Q14766 347-1721; P01137 30-390)
# Sequence (Q14766 347-1721, chain 1 of 2): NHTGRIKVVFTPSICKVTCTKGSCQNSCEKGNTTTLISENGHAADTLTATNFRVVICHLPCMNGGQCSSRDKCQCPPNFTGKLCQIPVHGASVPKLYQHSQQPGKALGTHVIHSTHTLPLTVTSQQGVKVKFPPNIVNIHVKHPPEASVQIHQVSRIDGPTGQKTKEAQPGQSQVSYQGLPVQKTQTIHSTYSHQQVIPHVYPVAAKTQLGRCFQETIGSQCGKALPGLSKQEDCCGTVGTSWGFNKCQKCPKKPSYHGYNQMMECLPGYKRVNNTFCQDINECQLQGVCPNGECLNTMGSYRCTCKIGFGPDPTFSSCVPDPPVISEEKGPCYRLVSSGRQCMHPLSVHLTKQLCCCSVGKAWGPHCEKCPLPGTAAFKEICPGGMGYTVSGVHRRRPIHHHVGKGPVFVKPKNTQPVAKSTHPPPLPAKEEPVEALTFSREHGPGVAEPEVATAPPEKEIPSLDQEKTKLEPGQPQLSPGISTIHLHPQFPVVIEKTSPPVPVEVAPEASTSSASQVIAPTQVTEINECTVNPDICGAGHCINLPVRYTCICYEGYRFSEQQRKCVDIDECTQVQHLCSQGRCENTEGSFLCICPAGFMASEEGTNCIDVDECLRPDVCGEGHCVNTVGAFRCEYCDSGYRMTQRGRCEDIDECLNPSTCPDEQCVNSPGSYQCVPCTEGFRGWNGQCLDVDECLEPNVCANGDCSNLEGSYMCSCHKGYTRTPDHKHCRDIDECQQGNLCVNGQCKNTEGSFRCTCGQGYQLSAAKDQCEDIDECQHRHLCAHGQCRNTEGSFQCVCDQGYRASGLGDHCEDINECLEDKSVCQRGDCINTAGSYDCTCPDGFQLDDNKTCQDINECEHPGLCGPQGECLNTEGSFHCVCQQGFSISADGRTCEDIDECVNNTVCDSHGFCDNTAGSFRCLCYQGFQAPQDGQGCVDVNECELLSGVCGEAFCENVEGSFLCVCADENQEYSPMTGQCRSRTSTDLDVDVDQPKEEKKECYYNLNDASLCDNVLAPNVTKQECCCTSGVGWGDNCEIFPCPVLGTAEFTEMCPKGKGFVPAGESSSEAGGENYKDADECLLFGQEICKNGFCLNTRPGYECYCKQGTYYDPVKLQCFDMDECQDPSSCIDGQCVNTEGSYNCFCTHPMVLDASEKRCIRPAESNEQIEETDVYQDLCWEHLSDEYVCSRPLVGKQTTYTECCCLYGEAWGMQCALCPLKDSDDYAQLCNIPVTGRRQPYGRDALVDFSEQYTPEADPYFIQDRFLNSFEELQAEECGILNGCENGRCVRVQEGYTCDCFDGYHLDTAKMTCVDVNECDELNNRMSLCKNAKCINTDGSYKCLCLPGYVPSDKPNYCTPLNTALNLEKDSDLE
# Sequence (P01137 30-390, chain 2 of 2): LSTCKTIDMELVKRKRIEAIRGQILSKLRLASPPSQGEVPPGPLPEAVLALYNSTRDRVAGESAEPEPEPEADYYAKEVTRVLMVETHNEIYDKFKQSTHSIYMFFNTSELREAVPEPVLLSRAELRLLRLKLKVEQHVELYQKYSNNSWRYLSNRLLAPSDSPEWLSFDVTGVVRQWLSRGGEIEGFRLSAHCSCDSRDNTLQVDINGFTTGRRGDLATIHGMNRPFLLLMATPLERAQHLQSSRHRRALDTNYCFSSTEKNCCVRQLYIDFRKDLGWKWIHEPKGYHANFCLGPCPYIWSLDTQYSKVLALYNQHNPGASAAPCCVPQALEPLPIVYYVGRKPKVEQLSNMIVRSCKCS
# Procedure Summary: cell-based or functional assay
Answer with a number only, understood to be in nM.

What value of IC50, reporter cell assay of TGFβ1 activation has been recorded for this entry: Ab25 (antibody, V domains shown) VH: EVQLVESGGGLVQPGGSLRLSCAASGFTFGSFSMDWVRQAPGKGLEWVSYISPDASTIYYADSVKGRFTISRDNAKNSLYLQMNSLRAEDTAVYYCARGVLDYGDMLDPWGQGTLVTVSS VL: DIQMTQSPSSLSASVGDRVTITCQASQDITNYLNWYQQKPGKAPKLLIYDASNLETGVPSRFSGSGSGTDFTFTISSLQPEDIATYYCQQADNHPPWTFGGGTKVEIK 6.08

And then Ab20 (antibody, IgG4, V domains shown) VH: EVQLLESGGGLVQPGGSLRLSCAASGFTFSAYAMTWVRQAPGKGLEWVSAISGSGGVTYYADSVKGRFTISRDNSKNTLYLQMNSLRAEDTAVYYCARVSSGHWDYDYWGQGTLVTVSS VL: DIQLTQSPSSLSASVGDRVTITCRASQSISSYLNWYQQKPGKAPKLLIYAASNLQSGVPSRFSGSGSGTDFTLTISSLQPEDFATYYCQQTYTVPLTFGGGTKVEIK , what is it? 1.85

Also need Ab6 (antibody, human IgG4 S228P, kappa, V domains shown) VH: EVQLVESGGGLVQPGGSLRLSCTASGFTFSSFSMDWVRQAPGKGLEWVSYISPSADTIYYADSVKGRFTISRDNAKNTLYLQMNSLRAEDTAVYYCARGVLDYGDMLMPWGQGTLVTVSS VL: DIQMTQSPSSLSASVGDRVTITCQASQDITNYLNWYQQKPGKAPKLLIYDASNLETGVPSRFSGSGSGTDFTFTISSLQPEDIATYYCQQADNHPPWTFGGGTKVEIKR , thanks. 2.74

Proceed to Ab4 (antibody, IgG4, V domains shown, also called parental lead antibody of Ab6) VH: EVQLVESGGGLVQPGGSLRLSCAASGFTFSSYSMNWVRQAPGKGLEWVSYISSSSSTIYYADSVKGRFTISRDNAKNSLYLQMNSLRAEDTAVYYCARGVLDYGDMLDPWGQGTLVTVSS VL: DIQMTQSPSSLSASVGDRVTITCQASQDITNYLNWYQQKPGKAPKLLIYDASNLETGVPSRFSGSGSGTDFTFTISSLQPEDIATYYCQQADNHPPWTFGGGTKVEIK 5.22

Then Ab12 (antibody, IgG4, V domains shown) VH: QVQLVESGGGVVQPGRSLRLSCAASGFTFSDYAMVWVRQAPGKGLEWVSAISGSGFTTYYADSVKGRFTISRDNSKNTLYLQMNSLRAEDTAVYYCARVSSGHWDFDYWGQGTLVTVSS VL: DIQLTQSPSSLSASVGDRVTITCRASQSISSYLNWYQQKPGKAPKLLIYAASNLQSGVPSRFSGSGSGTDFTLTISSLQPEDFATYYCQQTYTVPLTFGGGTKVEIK ? 3.79
